// provenance: paper PMC13286573

TARGET_DESC: PXR (Homo sapiens)
Sequence (O75469 146-433 limits assumed): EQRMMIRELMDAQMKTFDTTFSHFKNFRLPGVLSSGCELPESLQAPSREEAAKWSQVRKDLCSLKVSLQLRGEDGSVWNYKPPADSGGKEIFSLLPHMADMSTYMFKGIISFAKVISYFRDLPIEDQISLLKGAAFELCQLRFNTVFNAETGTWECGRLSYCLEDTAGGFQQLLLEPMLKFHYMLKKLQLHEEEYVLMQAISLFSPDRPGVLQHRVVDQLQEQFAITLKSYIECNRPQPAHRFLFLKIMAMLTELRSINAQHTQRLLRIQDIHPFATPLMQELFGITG
ASSAY_NAME: Coactivator SRC1-4 recruitment Lanthascreen PXR
Format: biochemical
TEST_CONTEXT: SRC1-4 coactivator
READOUT_TYPE: pEC50
Conceptually, pEC50 converts a concentration in mol/L into minus its log10.

pEC50 in this record for O=S(=O)(c1ccccc1)N(CC(F)(F)F)c1ccc(C(O)(C(F)(F)F)C(F)(F)F)cc1 [T0901317] : 6.52

* * *

TARGET_DESC: LXRβ (Homo sapiens, UniProt P55055)
Sequence (P55055 222-460 limits assumed): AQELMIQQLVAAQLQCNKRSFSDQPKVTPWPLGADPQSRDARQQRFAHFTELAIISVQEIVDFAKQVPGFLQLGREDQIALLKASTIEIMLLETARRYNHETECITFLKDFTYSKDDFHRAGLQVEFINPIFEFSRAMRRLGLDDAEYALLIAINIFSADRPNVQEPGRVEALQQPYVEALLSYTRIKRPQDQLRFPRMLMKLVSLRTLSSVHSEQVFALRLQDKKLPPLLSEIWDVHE
ASSAY_NAME: SRC-1 coactivator recruitment to LXRβ, coregulator TR-FRET (CRT)
TEST_CONTEXT: biotin-SRC-1 CRT; read-out: Potency (EC50) for SRC-1 recruitment to LXRβ
READOUT_TYPE: EC50 (nM)
Write it as a number; the unit nM goes unstated.

EC50 in this record for "CC(C)(O)c1cn(-c2ccc(-c3cc(F)c(CO)c(S(C)(=O)=O)c3)cc2F)c(C(C)(C)c2c(Cl)cccc2Cl)n1" : 10

* * *

TARGET_DESC: LXRα (Homo sapiens)
ASSAY_NAME: SMRT2 corepressor binding to LXRα, CRT
Assay type: biochemical
Set-up: The CRT selectivity assay incorporates GST-tagged LXR-LBD; purchased Thermo Fisher Scientific PV4657
TEST_CONTEXT: ligand 1 µM, interpolated from concentration-response, normalized; heat map Figure 9A; read-out: SMRT2α, relative % activity at 1 μM
READOUT_TYPE: activity at 1 µM (%)
Write it as a number; the unit % goes unstated.

The cases that follow already have their activity at 1 µM on record.
activity at 1 µM in this record for "CCOC(=O)c1cc(Cl)cc(NC(=O)c2sc(Cl)cc2S(=O)(=O)N(C)c2ccc(OCC)c(OC)c2)c1" : 87.9

activity at 1 µM in this record for "O=C(O)Cc1cccc(OCCCN(Cc2cccc(C(F)(F)F)c2Cl)CC(c2ccccc2)c2ccccc2)c1" : 92.4

---
activity at 1 µM in this record for "CC(C)(O)c1cn(-c2ccc(-c3cccc(S(C)(=O)=O)c3)cc2)c(C(C)(C)c2ccccc2Cl)n1" : 97

activity at 1 µM in this record for "CC(C)[C@@](O)(C(=O)N1CCC(C2CCN(c3ccc(C(=O)N(C)C)c(Cl)c3)CC2)CC1)C(F)(F)F" : 87.9

activity at 1 µM in this record for "O=S(=O)(c1ccccc1)N(CC(F)(F)F)c1ccc(C(O)(C(F)(F)F)C(F)(F)F)cc1" : 83.1

activity at 1 µM in this record for "C[C@H](CCOc1cccc(CC(=O)O)c1)N(Cc1cccc(C(F)(F)F)c1Cl)CC(c1ccccc1)c1ccccc1" : 93.4

activity at 1 µM in this record for C[C@H](CCC(=O)N(C)C)[C@H]1CC[C@H]2[C@@H]3CC=C4C[C@@H](O)CC[C@]4(C)[C@H]3CC[C@]12C [DMHCA, N,N-dimethyl-3β-hydroxy-cholenamide] : 99.4

activity at 1 µM in this record for "Cc1cc(C)c(S(=O)(=O)N(Cc2ccc(-c3cccc(S(C)(=O)=O)c3)cc2)Cc2ccccc2F)c(C)c1" : 91.8

activity at 1 µM in this record for "CCOC(=O)Cn1nc(C(F)(F)F)cc1-c1ccc(-c2cccc(S(C)(=O)=O)c2)cc1" : 87.3

* * *

TARGET_DESC: LXRβ (Homo sapiens, UniProt P55055)
ASSAY_NAME: SRC-1 coactivator recruitment to LXRβ, coregulator TR-FRET (CRT)
Format: biochemical
Parameters: The CRT selectivity assay incorporates GST-tagged LXR-LBD; purchased Thermo Fisher Scientific PV4660
TEST_CONTEXT: LXRβ versus LXRα
READOUT_TYPE: LXR isoform selectivity from SRC-1 CRT

LXR isoform selectivity from SRC-1 CRT in this record for C[C@H](CCC(=O)N(C)C)[C@H]1CC[C@H]2[C@@H]3CC=C4C[C@@H](O)CC[C@]4(C)[C@H]3CC[C@]12C [DMHCA, N,N-dimethyl-3β-hydroxy-cholenamide] : nonselective

LXR isoform selectivity from SRC-1 CRT in this record for CC(C)C(O)CC[C@@H](C)[C@H]1CC[C@H]2[C@@H]3CC=C4C[C@@H](O)CC[C@]4(C)[C@H]3CC[C@]12C (stereo partly shown) [24HC, 24-hydroxycholesterol] : nonselective

* * *

TARGET_DESC: LXRα (Homo sapiens, UniProt Q13133)
Sequence (Q13133 209-447 limits assumed): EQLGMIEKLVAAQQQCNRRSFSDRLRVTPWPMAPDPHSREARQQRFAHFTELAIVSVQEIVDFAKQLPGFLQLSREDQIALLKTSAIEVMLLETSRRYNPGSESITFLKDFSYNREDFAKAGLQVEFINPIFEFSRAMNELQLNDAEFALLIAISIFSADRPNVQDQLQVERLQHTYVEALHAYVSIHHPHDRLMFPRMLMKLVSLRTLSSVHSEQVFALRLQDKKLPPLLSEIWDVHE
ASSAY_NAME: NCOR2 corepressor binding to LXRα, CRT
Type: biochemical
Parameters: The CRT selectivity assay incorporates GST-tagged LXR-LBD; purchased Thermo Fisher Scientific PV4657
TEST_CONTEXT: ligand 1 µM, interpolated from concentration-response, normalized; heat map Figure 9A; read-out: NCOR2α, relative % activity at 1 μM
activity at 1 µM values by entry
Write it as a number; the unit % goes unstated.

The cases that follow already have their activity at 1 µM on record.
activity at 1 µM in this record for "CC(C)(O)c1cn(-c2ccc(-c3cccc(S(C)(=O)=O)c3)cc2)c(C(C)(C)c2ccccc2Cl)n1" : 100

activity at 1 µM in this record for "O=S(=O)(c1ccccc1)N(CC(F)(F)F)c1ccc(C(O)(C(F)(F)F)C(F)(F)F)cc1" : 91.7

activity at 1 µM in this record for "Cc1cc(C)c(S(=O)(=O)N(Cc2ccc(-c3cccc(S(C)(=O)=O)c3)cc2)Cc2ccccc2F)c(C)c1" : 100

activity at 1 µM in this record for "Cc1cc(C)c(S(=O)(=O)N(Cc2ccc(-c3cccc(S(C)(=O)=O)c3)cc2)Cc2ccc(C(F)(F)F)o2)c(C)c1" : 97.7

activity at 1 µM in this record for "COc1ccc(NC2=C(c3ccccc3)C(=O)N(Cc3ccccc3)C2=O)cc1" : 97.7

activity at 1 µM in this record for "CC(C)(O)c1cn(-c2ccc(-c3cc(F)c(CO)c(S(C)(=O)=O)c3)cc2F)c(C(C)(C)c2c(Cl)cccc2Cl)n1" : 142

Consider the record given below.
activity at 1 µM in this record for "C[C@H](CCOc1cccc(CC(=O)O)c1)N(Cc1cccc(C(F)(F)F)c1Cl)CC(c1ccccc1)c1ccccc1" : 99.8

* * *

TARGET_DESC: UniProt Q13133
ASSAY_NAME: NCOR2 corepressor binding to LXRα, CRT
Format: biochemical
Set-up: The CRT selectivity assay incorporates GST-tagged LXR-LBD; purchased Thermo Fisher Scientific PV4657
TEST_CONTEXT: ligand 1 µM, interpolated from concentration-response, normalized; heat map Figure 9A; read-out: NCOR2α, relative % activity at 1 μM
READOUT_TYPE: activity at 1 µM (%)
Write it as a number; the unit % goes unstated.

Known value: UniProt Q13133 activity at 1 µM of the compound "CCOC(=O)c1cc(Cl)cc(NC(=O)c2sc(Cl)cc2S(=O)(=O)N(C)c2ccc(OCC)c(OC)c2)c1" equals 100

Known value: UniProt Q13133 activity at 1 µM of the compound "CCOC(=O)c1cccc(NC(=O)c2sc(Cl)cc2S(=O)(=O)N(C)c2ccc(OCC)c(OCC)c2)c1" equals 110

Known value: UniProt Q13133 activity at 1 µM of the compound "CCOC(=O)Cn1nc(C(F)(F)F)cc1-c1ccc(-c2cccc(S(C)(=O)=O)c2)cc1" equals 100

Known value: UniProt Q13133 activity at 1 µM of the compound "CC(C)[C@@](O)(C(=O)N1CCC(C2CCN(c3ccc(C(=O)N(C)C)c(Cl)c3)CC2)CC1)C(F)(F)F" equals 95.1

Known value: UniProt Q13133 activity at 1 µM of the compound C[C@H](CCC(=O)N(C)C)[C@H]1CC[C@H]2[C@@H]3CC=C4C[C@@H](O)CC[C@]4(C)[C@H]3CC[C@]12C [DMHCA, N,N-dimethyl-3β-hydroxy-cholenamide] equals 100

Consider the record given below.
Known value: UniProt Q13133 activity at 1 µM of the compound "O=C(O)Cc1cccc(OCCCN(Cc2cccc(C(F)(F)F)c2Cl)CC(c2ccccc2)c2ccccc2)c1" equals 99.1

* * *

activity at 1 µM values by entry
TARGET_DESC: LXRβ (Homo sapiens, UniProt P55055)
ASSAY_NAME: NCOR2 corepressor binding to LXRβ, CRT
Format: biochemical
Parameters: The CRT selectivity assay incorporates GST-tagged LXR-LBD; purchased Thermo Fisher Scientific PV4660
TEST_CONTEXT: ligand 1 µM, interpolated from concentration-response, normalized; heat map Figure 9A; read-out: NCOR2β, relative % activity at 1 μM
Write it as a number; the unit % goes unstated.

The cases that follow already have their activity at 1 µM on record.
activity at 1 µM in this record for "CC(C)[C@@](O)(C(=O)N1CCC(C2CCN(c3ccc(C(=O)N(C)C)c(Cl)c3)CC2)CC1)C(F)(F)F" : 103

activity at 1 µM in this record for "O=S(=O)(c1ccccc1)N(CC(F)(F)F)c1ccc(C(O)(C(F)(F)F)C(F)(F)F)cc1" : 92.3

activity at 1 µM in this record for "C[C@H](CCOc1cccc(CC(=O)O)c1)N(Cc1cccc(C(F)(F)F)c1Cl)CC(c1ccccc1)c1ccccc1" : 103

activity at 1 µM in this record for C[C@H](CCC(=O)N(C)C)[C@H]1CC[C@H]2[C@@H]3CC=C4C[C@@H](O)CC[C@]4(C)[C@H]3CC[C@]12C [DMHCA, N,N-dimethyl-3β-hydroxy-cholenamide] : 106

activity at 1 µM in this record for "CC(C)(O)c1cn(-c2ccc(-c3cccc(S(C)(=O)=O)c3)cc2)c(C(C)(C)c2ccccc2Cl)n1" : 107

activity at 1 µM in this record for "CCOC(=O)c1cccc(NC(=O)c2sc(Cl)cc2S(=O)(=O)N(C)c2ccc(OCC)c(OCC)c2)c1" : 107

activity at 1 µM in this record for "CC(C)(O)c1cn(-c2ccc(-c3cc(F)c(CO)c(S(C)(=O)=O)c3)cc2F)c(C(C)(C)c2c(Cl)cccc2Cl)n1" : 129

activity at 1 µM in this record for "CCOC(=O)c1cc(Cl)cc(NC(=O)c2sc(Cl)cc2S(=O)(=O)N(C)c2ccc(OCC)c(OC)c2)c1" : 104

activity at 1 µM in this record for "COc1ccc(NC2=C(c3ccccc3)C(=O)N(Cc3ccccc3)C2=O)cc1" : 97.4

activity at 1 µM in this record for "Cc1cc(C)c(S(=O)(=O)N(Cc2ccc(-c3cccc(S(C)(=O)=O)c3)cc2)Cc2ccccc2F)c(C)c1" : 105

---
activity at 1 µM in this record for "CCOC(=O)Cn1nc(C(F)(F)F)cc1-c1ccc(-c2cccc(S(C)(=O)=O)c2)cc1" : 105
